These entries and their values trace back to patent US9611303B2.

test: Purification of LATM2 with biotin-agarose; assay type: binding; conditions: binding at pH 7, recovery with 10 mM biotin; FT = flow-through
measurement-type: Note (Biotin-agarose)

TM2 L97T: TM2 in which the 97th leucine was replaced with threonine (protein) MSDVQSSLTGTWYNELNSKMELTANKDGTLTGKYLSKVGDVYVPYPLSGRYNLQPPAGQGVALGWAVSWENSKIHSATTWSGQFFSESSPVILTQWTLSSSTARGDVWESTLVGNDSFTKTAPTEQQIAHAQLHCRAPRLK | not eluted
TM2 A66R-V113R: TM2 with 66th alanine and 113th valine replaced with arginine (protein) MSDVQSSLTGTWYNELNSKMELTANKDGTLTGKYLSKVGDVYVPYPLSGRYNLQPPAGQGVALGWRVSWENSKIHSATTWSGQFFSESSPVILTQWLLSSSTARGDVWESTLRGNDSFTKTAPTEQQIAHAQLHCRAPRLK | To FT
WT-TM2: wild-type tamavidin 2, protein comprising the amino acid sequence SEQ ID NO: 2, from Pleurotus cornucopiae (protein, listed as Pleurotus cornucopiae) MSDVQSSLTGTWYNELNSKMELTANKDGTLTGKYLSKVGDVYVPYPLSGRYNLQPPAGQGVALGWAVSWENSKIHSATTWSGQFFSESSPVILTQWLLSSSTARGDVWESTLVGNDSFTKTAPTEQQIAHAQLHCRAPRLK | not eluted
